System: A549/ATCC NSCLC
Test: NCI-60 one-dose screen, 48 h (100 = growth as untreated, 0 = no growth, -100 = all killed)
Details: 10 µM unless noted
The panel holds about 83,000 compounds, 20% with a hit somewhere; the sample as a whole holds those more often.
measured-quantity: growth (%)

{"compound": "COc1ccc(C(=O)/C=C/c2cccc(Cl)c2)cc1S(N)(=O)=O", "result-unit": "%", "observed-result": -81.7}
{"compound": "O=C1Nc2ccc([N+](=O)[O-])cc2C1=Nc1ccccc1", "result-unit": "%", "observed-result": 130}
{"compound": "COc1ccc(NC(=O)Cn2c(/C=C/c3cccc([N+](=O)[O-])c3)nc3ccccc3c2=O)cc1", "result-unit": "%", "observed-result": 84.7}
{"compound": "CCCCOc1ccc(NC(=O)c2sc3nc(C)ccc3c2N)cc1", "result-unit": "%", "observed-result": 0.0895}
{"compound": "COc1ccc2[nH]c(=O)c(CSc3nccc(-c4ccc(OC)c(OC)c4)n3)cc2c1", "result-unit": "%", "observed-result": 18.3}
{"compound": "COc1c(F)ccc(C(=O)Nc2ccc3nc(NC(=O)C4CCCN(S(=O)(=O)c5cccc(Br)c5)C4)sc3c2)c1F (centres undefined)", "result-unit": "%", "observed-result": 75.6}
{"compound": "Cc1ccc2c(N)c(C(=O)Nc3ccc(-c4ccccc4)cc3)sc2n1", "result-unit": "%", "observed-result": 81.5}
{"compound": "CCOc1ccc(-c2c(C#N)c(-c3ccc(Cl)cc3)nc3n[nH]c(-c4ccc(Cl)cc4)c23)cc1OC", "result-unit": "%", "observed-result": 55.4}
{"compound": "O=c1[nH]n(C(=S)N/N=C/c2ccccc2Cl)c(=O)c2ccccc12", "result-unit": "%", "observed-result": 7.02}
{"compound": "COc1ccc(NC(=O)Cn2c3c(sc2=O)[C@H]2[C@@H](O)[C@@H](O)[C@H](O)[C@@H]2CS3)cc1", "result-unit": "%", "observed-result": 100}
{"compound": "C=C1CCC2C3(C)COC(c4ccc(F)cc4)OC3CCC2(C)C1CC(O)C1=CCOC1=O (centres undefined)", "result-unit": "%", "observed-result": 59.6}
{"compound": "COc1cc(CNC(=O)/C=C/c2ccc3c(c2)OCO3)ccc1OCc1cn(-c2cccc(C(F)(F)F)c2)nn1", "result-unit": "%", "observed-result": -3.39}
{"compound": "COC(=O)/C=C/c1cccc2c1C(=O)NC(C)(c1cc3cc4ccccc4cc3oc1=O)N2 (centres undefined)", "result-unit": "%", "observed-result": 26.9}
{"compound": "N#Cc1cnn(C(=O)c2ccccc2Br)c1NC(=O)c1ccc(Br)cc1Cl", "result-unit": "%", "observed-result": 93.9}
{"compound": "Cc1ccc(Cc2cnc(NC(=O)c3ccc(/C=C4\\SC(=S)N(C)C4=O)cc3)s2)cc1", "result-unit": "%", "observed-result": 43.2}
{"compound": "Cn1cc(-c2cc(N)n3nc(-c4cn(C)c5ccccc45)cc3n2)c2cc(Br)ccc21", "result-unit": "%", "observed-result": 4.06}
{"compound": "Clc1cccc(-c2ccc(OCCCN3CCN(c4ccncc4)CC3)cc2)c1", "result-unit": "%", "observed-result": -11.9}
{"compound": "COc1cccc(/C=C/c2nc3ccccc3c(=O)n2CC(=O)Nc2ccc(Cl)cc2)c1", "result-unit": "%", "observed-result": 28.5}
{"compound": "COc1ccc2nc(Nc3cccc(NC(=O)c4ccc(CN5CCCN(C)CC5)c(C(F)(F)F)c4)c3)ccc2c1", "result-unit": "%", "observed-result": -24.8}
